Each recorded value in this set is attributed to paper PMC4081830.

- Test System: B. malayi T6PP (trehalose-6-phosphate phosphatase), wild type (Brugia malayi, UniProt A8NS89, D378A)
- Construct: gene Bm1_08695
- Test Method Notes: biochemical
Endpoint: Ki (µM)
Field: numeric (µM). Do not append units.

stdin: Identify measured Ki associated with O=S(=O)(O)OC[C@H]1O[C@H](O[C@H]2O[C@H](CO)[C@@H](O)[C@H](O)[C@H]2O)[C@H](O)[C@@H](O)[C@@H]1O [trehalose 6-sulfate]
stdout: 320

---

- Test System: B. malayi T6PP (trehalose-6-phosphate phosphatase), wild type (Brugia malayi, UniProt A8NS89, N228A)
- Test Method Notes: biochemical
Endpoint: Ki (µM)
Field: numeric (µM). Do not append units.

stdin: Identify measured Ki associated with O=S(=O)(O)OC[C@H]1O[C@H](O[C@H]2O[C@H](CO)[C@@H](O)[C@H](O)[C@H]2O)[C@H](O)[C@@H](O)[C@@H]1O [trehalose 6-sulfate]
stdout: 16

---

- Test System: B. malayi T6PP (trehalose-6-phosphate phosphatase), wild type (Brugia malayi, UniProt A8NS89, Y225A)
- Test Method Notes: biochemical
Endpoint: pKi
The scale used: pKi is minus the common logarithm of the concentration in molar units.

stdin: Identify measured pKi associated with O=S(=O)(O)OC[C@H]1O[C@H](O[C@H]2O[C@H](CO)[C@@H](O)[C@H](O)[C@H]2O)[C@H](O)[C@@H](O)[C@@H]1O [trehalose 6-sulfate]
stdout: 3.40

---

- Test System: B. malayi T6PP (trehalose-6-phosphate phosphatase), wild type (Brugia malayi, UniProt A8NS89, R337A)
- Test Method Notes: biochemical
Endpoint: pKi
The scale used: pKi is minus the common logarithm of the concentration in molar units.

stdin: Identify measured pKi associated with O=S(=O)(O)OC[C@H]1O[C@H](O[C@H]2O[C@H](CO)[C@@H](O)[C@H](O)[C@H]2O)[C@H](O)[C@@H](O)[C@@H]1O [trehalose 6-sulfate]
stdout: 3.15

---

- Test System: B. malayi T6PP (trehalose-6-phosphate phosphatase), wild type (Brugia malayi, UniProt A8NS89, W280A)
- Construct: gene Bm1_08695
- Test Method Notes: biochemical
Endpoint: Ki
Number plus unit, in that order.

stdin: Identify measured Ki associated with O=S(=O)(O)OC[C@H]1O[C@H](O[C@H]2O[C@H](CO)[C@@H](O)[C@H](O)[C@H]2O)[C@H](O)[C@@H](O)[C@@H]1O [trehalose 6-sulfate]
stdout: 270 µM

---

- Test System: B. malayi T6PP (trehalose-6-phosphate phosphatase), wild type (Brugia malayi, UniProt A8NS89)
- Construct: gene Bm1_08695; full-length (492 residues) from cDNA library, modified pET-15b(TEV), E. coli T7 Express; N-terminal His-tag removed by TEV protease
- Sequence (A8NS89 whole entry): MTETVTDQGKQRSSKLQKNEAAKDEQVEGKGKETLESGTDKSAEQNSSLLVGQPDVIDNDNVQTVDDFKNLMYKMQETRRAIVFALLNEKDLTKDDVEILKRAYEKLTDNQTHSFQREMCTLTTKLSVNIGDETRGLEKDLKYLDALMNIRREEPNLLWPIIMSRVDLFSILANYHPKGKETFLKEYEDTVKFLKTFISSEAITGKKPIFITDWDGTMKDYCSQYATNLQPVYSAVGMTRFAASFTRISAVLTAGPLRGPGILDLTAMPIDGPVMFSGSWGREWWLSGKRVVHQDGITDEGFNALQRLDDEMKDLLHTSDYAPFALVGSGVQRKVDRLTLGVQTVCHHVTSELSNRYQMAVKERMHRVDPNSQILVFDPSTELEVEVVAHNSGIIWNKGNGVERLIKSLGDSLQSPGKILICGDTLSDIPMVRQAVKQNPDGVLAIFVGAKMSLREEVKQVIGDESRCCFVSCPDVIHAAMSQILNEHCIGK
- Test Method Notes: inhibition kinetics
- Assay type: biochemical
- Assay Context: no inhibition; substrate trehalose 6-phosphate
pKi: −log10 of the molar value.
Endpoint: pKi

stdin: Identify measured pKi associated with O=P(O)(O)OC[C@H]1OC(O)[C@H](O)[C@@H](O)[C@@H]1O (stereo partly shown) [glucose 6-phosphate]
stdout: < 2.00

---

- Test System: B. malayi T6PP (trehalose-6-phosphate phosphatase), wild type (Brugia malayi, UniProt A8NS89)
- Construct: gene Bm1_08695; full-length (492 residues) from cDNA library, modified pET-15b(TEV), E. coli T7 Express; N-terminal His-tag removed by TEV protease
- Test Method Notes: inhibition kinetics
- Format: biochemical
pKi: −log10 of the molar value.
Endpoint: pKi

stdin: Identify measured pKi associated with OC[C@H]1O[C@H](O[C@H]2O[C@H](CO)[C@@H](O)[C@H](O)[C@H]2O)[C@H](O)[C@@H](O)[C@@H]1O [trehalose]
stdout: < 2.00

---

- Test System: B. malayi T6PP (trehalose-6-phosphate phosphatase), wild type (Brugia malayi, UniProt A8NS89, E384A)
- Test Method Notes: biochemical
- Text: steady-state inhibition kinetics, EnzChek phosphate assay on B. malayi T6PP (trehalose-6-phosphate phosphatase), wild type
Endpoint: Ki (µM)
Field: numeric (µM). Do not append units.

stdin: Identify measured Ki associated with O=S(=O)(O)OC[C@H]1O[C@H](O[C@H]2O[C@H](CO)[C@@H](O)[C@H](O)[C@H]2O)[C@H](O)[C@@H](O)[C@@H]1O [trehalose 6-sulfate]
stdout: 200

---

- Test System: B. malayi T6PP (trehalose-6-phosphate phosphatase), wild type (Brugia malayi, UniProt A8NS89, S329A)
- Test Method Notes: biochemical
Endpoint: Ki

stdin: Identify measured Ki associated with O=S(=O)(O)OC[C@H]1O[C@H](O[C@H]2O[C@H](CO)[C@@H](O)[C@H](O)[C@H]2O)[C@H](O)[C@@H](O)[C@@H]1O [trehalose 6-sulfate]
stdout: 240 µM

---

- Test System: B. malayi T6PP (trehalose-6-phosphate phosphatase), wild type (Brugia malayi, UniProt A8NS89, Q332A)
- Test Method Notes: biochemical
Endpoint: pKi
The scale used: pKi is minus the common logarithm of the concentration in molar units.

stdin: Identify measured pKi associated with O=S(=O)(O)OC[C@H]1O[C@H](O[C@H]2O[C@H](CO)[C@@H](O)[C@H](O)[C@H]2O)[C@H](O)[C@@H](O)[C@@H]1O [trehalose 6-sulfate]
stdout: 3.00

---

- Test System: B. malayi T6PP (trehalose-6-phosphate phosphatase), wild type (Brugia malayi, UniProt A8NS89, Y221A)
- Test Method Notes: biochemical
Endpoint: Ki (µM)
Field: numeric (µM). Do not append units.

stdin: Identify measured Ki associated with O=S(=O)(O)OC[C@H]1O[C@H](O[C@H]2O[C@H](CO)[C@@H](O)[C@H](O)[C@H]2O)[C@H](O)[C@@H](O)[C@@H]1O [trehalose 6-sulfate]
stdout: 1300
